- ASSAYED TARGET: GLP-1 receptor (UniProt P43220 24-463, limits assumed)
- PROTOCOL DETAILS: cell-based or functional assay
Where no end group is shown, it is not given here.
MEASURE NAME: EC50
Express the reported value numerically, then name its unit.

Query string: Please look up its EC50: HSQGTFTSDYSKYLDEIHQKEFIAWLLAQ-NH2 [mt-66]
Result string: 0.13 nM

Query string: Endpoint output: EC50 of YSQGTFTSDYSKYLDEIHQKDFVNWLLAQ-NH2 [mt-109] . Value?
Result string: 3.86 nM

Query string: Requested field: EC50. Item: HSQGTFTSDYSKYLDKIHQEEFIAWLMNT-NH2 [mt-68]
Result string: 0.82 nM
